Reported Endpoint: ready biodegradability

Compound | Assay Value
C=CC(=O)OCCCC | readily biodegradable
O=C(O)C=Cc1ccccc1 | readily biodegradable
C=COC(=O)CC | readily biodegradable
NCCc1ccc(Br)cc1 | readily biodegradable
C(=Cc1ccncc1)c1ccccc1 | readily biodegradable
CCCCCCCCCCCCOS(=O)(=O)c1ccccc1 | readily biodegradable
C1=Cc2cccc3cccc1c23 | readily biodegradable
CC(=O)CC(=O)Nc1ccccc1 | readily biodegradable

Return the recorded ready biodegradability value; entry: CCCCCCCCCCCCCC
readily biodegradable

====

A collection of compounds and their measured boiling point
The reply should be a number in °C, with the unit left off.

# count of solved cases: 6
Compound | boiling point, °C
CCC1CCC(C)CC1 (stereo unspecified) | 151
C#CCCC(C)=O | 149
NC(=O)Nc1ccc(Br)cc1 | 260
CC(=O)CCCC(=O)O | 274
FC(F)(F)Cl | -81.4
ClSC(Cl)(Cl)Cl | 148

Return the recorded boiling point value; entry: CCCCCCC1CCCCC1
224

Return the recorded boiling point value; entry: CC(C)CC=O
92.5

Return the recorded boiling point value; entry: O=C(O)c1ccccc1
249

Hello, the source for this data is the OPERA property sets (Mansouri et al. 2018), in case you need it.
